test_system: human MDM2 protein (amino acids 2-188) (Homo sapiens (Human))
Sequence (Q00987 2-188): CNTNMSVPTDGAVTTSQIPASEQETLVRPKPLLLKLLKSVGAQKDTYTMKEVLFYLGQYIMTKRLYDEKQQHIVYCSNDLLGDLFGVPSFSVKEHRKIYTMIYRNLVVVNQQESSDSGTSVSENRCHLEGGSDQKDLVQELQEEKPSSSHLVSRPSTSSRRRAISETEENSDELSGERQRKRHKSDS
test_description: TR-FRET assay, p53-MDM2 Assay 2 (modified)
Type: binding
test_conditions: TR-FRET; 0.1 nM MDM2, 0.1 nM Europium labeled streptavidin, Tecan genios Pro reader; read-out: IC50 p53-MDM2 Assay 2
# label = Yes if IC50 < 2 nM else No

Past entries and their recorded results:
COc1cccnc1-c1cc2c(n1C(C)C)C(c1ccc(Cl)cc1)N(c1cc(Cl)ccc1C)C2=O (stereo not shown); Yes
COc1ncc(-c2cc3c(n2C(C)C)C(c2ccc(Cl)cn2)N(c2ccc(F)c(Cl)c2)C3=O)c(OC)n1 (stereo not shown); Yes
COc1nc(N(C)C)ncc1-c1cc2c(n1C(C)C)C(c1ccc(C#N)cc1)N(c1cc(Cl)cn(C)c1=O)C2=O (stereo not shown); Yes
COc1nc(N)ncc1-c1cc2c(n1C(C)C)C(c1ccc(Cl)cc1)N(C1CCC(=O)N(C)C1)C2=O (stereo not shown); No
COc1nc(N(C)C)ncc1-c1cc2c(n1C(C)C)C(c1ccc(C#N)c(F)c1)N(c1cc(Cl)c[nH]c1=O)C2=O (stereo not shown); Yes
COc1ncc(-c2cc3c(n2C(C)C)[C@@H](c2ccc(C#N)c(F)c2)N(c2cc(Cl)c(=O)n(C)c2)C3=O)c(OC)n1; No
COC[C@@H](C)n1c(-c2cnc(N)nc2OC)cc2c1[C@@H](c1ccc(Cl)cc1)N(c1ccc(F)c(Cl)c1)C2=O; No
CNC(=O)c1ccc(OC)c(-c2cc3c(n2C(C)C)C(c2ccc(Cl)cc2)N(c2cc(Cl)ccc2C#N)C3=O)c1 (stereo not shown); Yes

Determine whether this molecule shows IC50 lower than 2 nM (ties excluded): COc1ccccc1-c1c(C#N)c2c(n1C(C)C)C(c1ccc(Cl)cc1)N(c1cc(Cl)ccc1C)C2=O (stereo not shown)
Yes

Below 2 nM on IC50? Entry COc1nc(N)ncc1-c1cc2c(n1C(C)C)C(c1ccc(C#N)cc1)N(c1cccc(Cl)c1F)C2=O (stereo not shown)
Yes

The values you see were collected from patent US9365576B2.
